tested on: CP305; experiment: qHTS profiling for inhibitors of Plasmodium falciparum proliferation (AID 504749); note: nearly all actives have a fitted effect of over 60% in size; conditions: P. falciparum in erythrocytes, SYBR Green DNA, 72 h; series mostly up to 28.7 µM
Results filed as inconclusive are left out. Calls of active or inactive are those of the source. Calls come from the whole dose curve; as a rule, active = well fitted inhibition curve with a large enough effect; inconclusive = small, poorly fitted or top-dose-only effect; inactive = flat fitted curve, though single readings scatter.
Reply using exactly one outcome from active, inactive

QUERY: What classification did CN=C(NC#N)NCCSCc1csc(N=C(N)N)n1 end up with in this test?
RESULT: inactive

QUERY: What classification did COC1=CC(=O)C[C@@H](C)[C@]12Oc1c(Cl)c(OC)cc(OC)c1C2=O end up with in this test?
RESULT: inactive

QUERY: What classification did O=C(Nc1ccc(Cl)c(Cl)c1)C1CC1 end up with in this test?
RESULT: inactive

QUERY: What classification did CC1(C)CCC(NC(=O)[C@@H](N)CCC(=O)O)CC1 end up with in this test?
RESULT: inactive

QUERY: What classification did COc1cc(-c2ccc(=O)[nH]n2)ccc1OC(F)F end up with in this test?
RESULT: inactive

QUERY: What classification did O=c1ccc2ccccc2o1 end up with in this test?
RESULT: inactive

QUERY: What classification did CN=C(NC#N)Nc1ccc(C2=NNC(=O)CC2C)cc1 (stereo not drawn) end up with in this test?
RESULT: inactive

QUERY: What classification did C#C[C@]1(O)CC[C@H]2[C@@H]3CCc4cc(OC5CCCC5)ccc4[C@H]3CC[C@@]21C end up with in this test?
RESULT: inactive

QUERY: What classification did Cc1c(N(C)CS(=O)(=O)O)c(=O)n(-c2ccccc2)n1C end up with in this test?
RESULT: inactive

QUERY: What classification did CN(C)CCCOc1nn(Cc2ccccc2)c2ccccc12 end up with in this test?
RESULT: inactive

QUERY: What classification did Nc1ccc(C(=O)O)cc1 end up with in this test?
RESULT: inactive

QUERY: What classification did CN(C)C(=S)SC(=S)N(C)C end up with in this test?
RESULT: active

QUERY: What classification did NC(CO)(CO)CO end up with in this test?
RESULT: inactive

====

assay: NCATS anti-infectives library activity on HEK293 viability as a counter-qHTS vs the C. elegans viability qHTS (AID 1745854); details: HEK293 viability counter-screen; series mostly up to 41.8 µM;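 note: HEK293 cells exposed to compounds for 24 hr before the viability read; % is set by controls: 0 for no effect and ±100 for the full control effect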
Records with an inconclusive call do not appear. Calls of active or inactive are those of the source. The call rests on the fitted dose curve; in most records, active means well fitted cell-killing curve with a large enough effect; inconclusive means small, poorly fitted or top-dose-only effect; inactive means flat fitted curve, though single readings scatter.
measured parameter: activity change, negative = cytotoxicity

Here are 5 molecules together with their reported answers.
molecular string	activity change, negative = cytotoxicity
NCCCC[C@H](N[C@@H](CCc1ccccc1)C(=O)O)C(=O)N1CCC[C@H]1C(=O)O	-8.63% [at 8.35 µM] (inactive)
CC[C@@H](CO)NCCN[C@@H](CC)CO	inactive
CC(O)(P(=O)(O)O)P(=O)(O)O	0.883% [at 8.35 µM] (inactive)
CCCCC1=NC2(CCCC2)C(=O)N1Cc1ccc(-c2ccccc2-c2nn[nH]n2)cc1	inactive
CCCCc1nc(Cl)c(CO)n1Cc1ccc(-c2ccccc2-c2nn[nH]n2)cc1	inactive

QUERY: Form field: reported activity change, negative = cytotoxicity of CC1(C)O[C@@H]2[C@@H](CO[C@@]3(COS(N)(=O)=O)OC(C)(C)O[C@@H]23)O1
RESULT: inactive

QUERY: Form field: reported activity change, negative = cytotoxicity of C=C1C(=C/C=C2\CCC[C@]3(C)[C@@H]([C@H](C)/C=C/[C@@H](O)C4CC4)CC[C@@H]23)C[C@@H](O)C[C@@H]1O
RESULT: inactive

QUERY: Form field: reported activity change, negative = cytotoxicity of CCN(CC)C(=O)/C(C#N)=C/c1cc(O)c(O)c([N+](=O)[O-])c1
RESULT: inactive
